Test system: Fibroblast
Experiment: Multiplex assay against human fibroblast
Assay type: toxicity, cell-based
Conditions: 48 h, 1 µM, compound concentration 1 uM, replicate 1
measured.endpoint: Population Tubulin-Different-Phenotype (%)
Lab book: enter the figure in %, no units written.

{"molecule": "COCCn1c(C)c(C)s/c1=N\\C(=O)C1C(C)(C)C1(C)C", "value.unit": "%", "value.measured": 43}
{"molecule": "CSc1nc(NC2CCCC2)c([N+](=O)[O-])c(NC2CCCC2)n1 [GS-39783]", "value.unit": "%", "value.measured": 29}
{"molecule": "C[C@@H]1CC(=O)Nc2cccc(-c3ccc4c(c3)c(-c3cnn(C)c3)nn4C)c2N1", "value.unit": "%", "value.measured": 21}
{"molecule": "COc1ccc2[nH]c(I)c(CCNC(C)=O)c2c1 [IODOMELATONIN]", "value.unit": "%", "value.measured": 22}

Using the record for `N[C@](CC1c2ccccc2Oc2ccccc21)(C(=O)O)[C@H]1C[C@@H]1C(=O)O` , state its measured Population Tubulin-Different-Phenotype (%).
26

---

Some compounds, each annotated with its measured Total Cell Count.
Test system: U2OS
Experiment: Multiplex assay against U2OS
Type: toxicity, cell-based
Settings: human, 12 h, 10 µM, compound concentration 10 uM, replicate 2
Answer with the value's number alone.

Field: example entries. Status: answers known.
{"compound": "Cc1cc(-c2ccc3c(c2)CC[C@H]3N2CC3(CCN(C(=O)Cc4cn5cc(C)sc5n4)CC3)C2)ncn1", "Total Cell Count": 126}
{"compound": "COCCn1c(C)c(C)s/c1=N\\C(=O)C1C(C)(C)C1(C)C", "Total Cell Count": 135}
{"compound": "COCCCN1CCC(NC(=O)c2cc(Cl)c(N)c3c2OCC3)CC1 [PRUCALOPRIDE]", "Total Cell Count": 140}

Supply Total Cell Count value. Item: `COc1ccc2[nH]c(I)c(CCNC(C)=O)c2c1`
134

Name the recorded Total Cell Count of the item `CCCCC[C@H](O)/C=C/[C@H]1[C@H](O)CC(=O)[C@@H]1CCCCCCC(=O)O` in your answer.
104

For the compound `CN(C)C(=O)Cn1cc(-c2ccc(-c3nnc4ccccn34)cc2)cn1` , give its measured Total Cell Count value.
140

Quick one: give measured Total Cell Count for `Cc1cc(NC(=O)NCCN2CCC(O)(Cc3ccccc3)CC2)c2ccccc2n1`
107

Answer with reported Total Cell Count of `Cc1nn(C)c2nc(NNC(=O)Nc3cc(Cl)nc(Cl)c3)cc(C(C)C)c12`
104

---

System: HEK-293T
Experiment: Multiplex assay against HEK293T
Type: toxicity, cell-based
Conditions: human, 48 h, 1 µM, compound concentration 1 uM, replicate 2
measured.endpoint: Population Pyknosed Nuclei (%)
# unit: % | format: bare number

{"molecule": "CN(C)C(=O)Cn1cc(-c2ccc(-c3nnc4ccccn34)cc2)cn1", "value.unit": "%", "value.measured": 7}
{"molecule": "CCCCC[C@H](O)/C=C/[C@H]1[C@H](O)CC(=O)[C@@H]1CCCCCCC(=O)O [ALPROSTADIL]", "value.unit": "%", "value.measured": 6}
{"molecule": "COc1cc2nc(N3CCN(C(=O)c4ccco4)CC3)nc(N)c2cc1OC.Cl [PRAZOSIN HYDROCHLORIDE]", "value.unit": "%", "value.measured": 6}
{"molecule": "O=c1ccc2ccc(OCCCCN3CCN(c4cccc5sccc45)CC3)cc2[nH]1 [BREXPIPRAZOLE]", "value.unit": "%", "value.measured": 7}
{"molecule": "C[C@@H]1CC(=O)Nc2cccc(-c3ccc4c(c3)c(-c3cnn(C)c3)nn4C)c2N1", "value.unit": "%", "value.measured": 9}

Please look at the following molecule next.
Look up and report Population Pyknosed Nuclei (%), with HEK-293T as system, for `Cn1cc(C(=O)OCC2CCN(CCNS(C)(=O)=O)CC2)c2ccccc21`
6

---

System: HEK-293T
Assay: Multiplex assay against HEK293T
Format: toxicity, cell-based
Conditions: human, 48 h, 1 µM, compound concentration 1 uM, replicate 1
Non-standard residues stand in square brackets, D forms with d. Residues, ends and D or L forms follow the SMILES beside them.
Tag: True if measured Population Hoechst High Intensity Objects (%) is not below 2%, False if it is.

Recorded results for 2 molecules are shown here.
{"molecule": "C[C@@H]1CC(=O)Nc2cccc(-c3ccc4c(c3)c(-c3cnn(C)c3)nn4C)c2N1", "label.class": "False"}
{"molecule": "OCCCNc1cc(-c2ccnc(Nc3cccc(Cl)c3)n2)ccn1", "label.class": "True"}

Please indicate if the recorded Population Hoechst High Intensity Objects (%) for `Cc1cc(O)c(-c2ccc([C@@H](C)CN(C)C)cc2)c2c1[nH]c(=O)c1sccc12` meets or exceeds 2%.
True

Record CC(C)C[C@@H]1NC(=O)[C@@H](C(C)C)NC(=O)[C@@H]2CCCN2C(=O)[C@@H](CC(=O)O)NC(=O)[C@@H](Cc2c[nH]c3ccccc23)NC1=O [BQ-123] (cyclo(L[dW][dD]P[dV])) ; criterion: Population Hoechst High Intensity Objects (%) no lower than 2%. Met?
True

Item CCn1c(-c2nc3cc(C(=O)N4CCCC(N)C4)ccc3n2C)cc2ccccc21.Cl (stereo not drawn) with Population Hoechst High Intensity Objects (%) of 2% or above?
True

Is Population Hoechst High Intensity Objects (%) for COc1ccc2[nH]c(I)c(CCNC(C)=O)c2c1 [IODOMELATONIN] at or above 2%?
True

---

Test system: U2OS
Test: Multiplex assay against U2OS
Type: toxicity, cell-based
Conditions: human, 48 h, 1 µM, compound concentration 1 uM, replicate 2
Examples of compounds with documented Population Pyknosed Nuclei (%) follow.
Answer shape: numeric part, then the unit.

{"compound": "CN(C)C(=O)Cn1cc(-c2ccc(-c3nnc4ccccn34)cc2)cn1", "value.measured": "20%"}
{"compound": "C[C@H](NC(=O)CNC(=O)c1cccc(Cl)c1)c1ccccc1", "value.measured": "11%"}
{"compound": "CN(C)C/C=C/C(=O)Nc1ccc(C(=O)N2CCCC(Nc3ncc(Cl)c(-c4c[nH]c5ccccc45)n3)C2)cc1 (centres undefined)", "value.measured": "12%"}

# evaluate next
Return Population Pyknosed Nuclei (%) for the following compound: `Cc1cc(O)c(-c2ccc([C@@H](C)CN(C)C)cc2)c2c1[nH]c(=O)c1sccc12`
15%

---

System: HEK-293T
Assay: Multiplex assay against HEK293T
Type: toxicity, cell-based
Details: human, 24 h, 10 µM, compound concentration 10 uM, replicate 2
measured.endpoint: Population Normal (%)
State just the number; it will be interpreted in %.

Provide measured Population Normal (%) on HEK-293T for `Cc1c(Cc2ccc3ccccc3n2)c2cc(F)ccc2n1CC(=O)O` please.
94

Please respond with reported Population Normal (%) (system HEK-293T) for `CC(F)(F)CN1CCOc2c(nn(-c3ccccc3Cl)c2-c2ccc(Cl)cc2)C1=O` .
94

Param request: Population Normal (%) | system HEK-293T | item Cl.Cl.OCCOCCN1CCN(C(c2ccccc2)c2ccc(Cl)cc2)CC1 (stereo not drawn) [HYDROXYZINE HYDROCHLORIDE]
77

Find the measured Population Normal (%) of `CC(C)C[C@H](CO)Nc1nc(S[C@@H](C)c2ccccc2)nc2nc(N)sc12` with HEK-293T as test system.
91

Please look at O=C(O)CCC/C=C\CC1C(O)CC(O)C1/C=C/C(O)COc1cccc(Cl)c1 (stereo not drawn) and tell me its recorded Population Normal (%) on HEK-293T.
88

---

Test system: Fibroblast
Assay: Multiplex assay against human fibroblast
Type: toxicity, cell-based
Settings: 24 h, 1 µM, compound concentration 1 uM, replicate 1
Binned Population Apoptotic (%); ranges: low class = under 40%, middle class = from 40% up to 60%, high class = 60% and over

Examples from the recorded data:
{"compound": "OCCCNc1cc(-c2ccnc(Nc3cccc(Cl)c3)n2)ccn1", "label.class": "middle class"}
{"compound": "CCCCC[C@H](O)/C=C/[C@H]1[C@H](O)CC(=O)[C@@H]1CCCCCCC(=O)O", "label.class": "low class"}
{"compound": "CC(C)C[C@H](CO)Nc1nc(S[C@@H](C)c2ccccc2)nc2nc(N)sc12", "label.class": "middle class"}
{"compound": "CN1CCN(c2ccc(Nc3c4ccccc4nc4ccccc34)cc2)CC1.Cl.Cl.O", "label.class": "high class"}
{"compound": "CN1C[C@H](C(=O)N[C@]2(C)O[C@@]3(O)[C@@H]4CCCN4C(=O)[C@H](Cc4ccccc4)N3C2=O)C[C@@H]2c3cccc4[nH]cc(c34)C[C@H]21.CS(=O)(=O)O [DIHYDROERGOTAMINE MESYLATE]", "label.class": "low class"}

Exam item: assign `COC(c1ccccc1)(c1ccccc1)[C@H](Oc1nc(C)cc(C)n1)C(=O)O` to the correct category.
high class

Place this compound in its band: `Cn1cc(C(=O)OCC2CCN(CCNS(C)(=O)=O)CC2)c2ccccc21`
low class

Source listed as ChEMBL document CHEMBL5058577.
